- ASSAY_DETAILS: Azacitidine plasma pharmacokinetics, non-compartmental analysis
- Type: in vivo, patients
- CONDITION_SET: human, plasma, intravenous, azacitidine/oxaliplatin 20/15 mg/m^2; C1D5; n = 3; mean (SD)
- Description: Compartmental and non-compartmental modeling were used to derive pharmacokinetic parameters, including Cmax (maximum concentration), AUC (area under the curve), t1/2 (half-life of elimination), Vd (volume of distribution), and CL (clearance).
PROPERTY_LABEL: half-life (min)
Only the number, expressed in min, is required.

Qu. # input molecule: `Nc1ncn([C@@H]2O[C@H](CO)[C@@H](O)[C@H]2O)c(=O)n1` ; wanted: its half-life
Ans. 21
